Hello, the source for this data is ChEMBL document CHEMBL2396629, in case you need it.

Biological target: Nitric oxide synthase 1 (Homo sapiens, UniProt P29475)
Sequence (P29475 whole entry): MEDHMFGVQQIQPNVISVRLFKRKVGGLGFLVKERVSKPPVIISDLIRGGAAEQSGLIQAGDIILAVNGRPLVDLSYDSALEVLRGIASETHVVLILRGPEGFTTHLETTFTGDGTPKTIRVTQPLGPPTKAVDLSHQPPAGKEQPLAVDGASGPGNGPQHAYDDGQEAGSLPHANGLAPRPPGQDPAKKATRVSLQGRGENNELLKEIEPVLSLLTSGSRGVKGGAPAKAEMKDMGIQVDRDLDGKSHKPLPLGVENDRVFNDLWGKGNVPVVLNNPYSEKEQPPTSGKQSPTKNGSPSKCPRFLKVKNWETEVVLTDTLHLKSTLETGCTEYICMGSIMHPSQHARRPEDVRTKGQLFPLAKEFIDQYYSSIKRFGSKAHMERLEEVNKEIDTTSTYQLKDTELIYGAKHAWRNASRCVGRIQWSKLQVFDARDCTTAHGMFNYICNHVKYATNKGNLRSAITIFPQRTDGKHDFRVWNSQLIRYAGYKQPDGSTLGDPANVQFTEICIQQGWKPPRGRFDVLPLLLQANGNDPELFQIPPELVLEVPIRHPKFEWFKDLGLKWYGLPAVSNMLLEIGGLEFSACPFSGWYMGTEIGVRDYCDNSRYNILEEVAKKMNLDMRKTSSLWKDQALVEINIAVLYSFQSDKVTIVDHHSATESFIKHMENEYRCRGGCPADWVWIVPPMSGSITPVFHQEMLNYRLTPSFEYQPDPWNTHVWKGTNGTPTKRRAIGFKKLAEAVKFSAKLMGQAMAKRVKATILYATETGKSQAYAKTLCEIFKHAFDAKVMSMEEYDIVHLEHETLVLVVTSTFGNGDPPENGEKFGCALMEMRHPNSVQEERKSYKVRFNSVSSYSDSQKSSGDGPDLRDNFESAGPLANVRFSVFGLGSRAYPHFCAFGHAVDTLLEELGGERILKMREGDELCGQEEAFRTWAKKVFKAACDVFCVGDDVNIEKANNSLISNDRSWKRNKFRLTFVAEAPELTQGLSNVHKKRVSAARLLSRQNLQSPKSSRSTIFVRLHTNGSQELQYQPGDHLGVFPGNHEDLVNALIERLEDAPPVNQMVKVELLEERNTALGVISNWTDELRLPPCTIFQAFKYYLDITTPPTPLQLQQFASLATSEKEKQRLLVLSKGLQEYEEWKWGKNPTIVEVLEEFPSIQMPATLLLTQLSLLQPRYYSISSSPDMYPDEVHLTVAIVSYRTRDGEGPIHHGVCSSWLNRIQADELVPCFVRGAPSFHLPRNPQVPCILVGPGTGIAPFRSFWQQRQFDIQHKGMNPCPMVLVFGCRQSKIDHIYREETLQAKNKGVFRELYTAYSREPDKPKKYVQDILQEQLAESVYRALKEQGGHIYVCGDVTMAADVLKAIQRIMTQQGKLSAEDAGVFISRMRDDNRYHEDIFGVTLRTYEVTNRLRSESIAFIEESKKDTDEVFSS
Test: Inhibition of recombinant nNOS (unknown origin) assessed as conversion of L-[3H]-arginine to L-[3H]-citrulline at 1 mM after 30 mins
The reader will find reported inhibition values listed item by item below.
Give the quantity in %, number only.

Study these solved cases before continuing.
| smiles structure | inhibition, % |
| --- | --- |
| CCC(=O)N1CCC(c2cc(Cl)ccc2N)=N1 | 46.1 |
| Nc1cc(Cl)c(Cl)cc1C1=NN(C(=O)C2CC2)CC1 | 50.5 |
| Nc1ccc(Cl)cc1C1=NN(C(=O)CCc2ccccc2)CC1 | 32.4 |
| Nc1cc(Cl)c(Cl)cc1C1=NN(C(=O)CCc2ccccc2)CC1 | 2.97 |
| CCCCC(=O)N1CCC(c2cc(OC)ccc2N)=N1 | 49.8 |
| COc1cc(N)c(C2=NN(C(=O)CCc3ccccc3)CC2)cc1OC | 55.3 |

Lab note: need inhibition with Nitric oxide synthase 1 (Homo sapiens, UniProt P29475) for entry "COc1ccc(N)c(C2=NN(C(=O)Cc3ccccc3)CC2)c1" , please look it up.
0.03

Give the reported inhibition for "Nc1ccccc1C1=NN(C(=O)C2CC2)CC1" (system: Nitric oxide synthase 1 (Homo sapiens, UniProt P29475)).
38.8

Form field - read-out: inhibition; system: Nitric oxide synthase 1 (Homo sapiens, UniProt P29475); submitted item: "Nc1ccc(Cl)cc1C1=NN(C(=O)C2CC2)CC1"
70.2

API: value(readout=inhibition, system=Nitric oxide synthase 1 (Homo sapiens, UniProt P29475)) for record "COc1ccc(N)c(C2=NN(C(=O)C3CC3)CC2)c1"
62.2

For the record "COc1cc(N)c(C2=NN(C(=O)c3ccccc3)CC2)c(OC)c1OC" , what value of inhibition is listed for Nitric oxide synthase 1 (Homo sapiens, UniProt P29475)?
62.9

Lab note: need inhibition for "CCCC(=O)N1CCC(c2cc(Cl)ccc2N)=N1" on Nitric oxide synthase 1 (Homo sapiens, UniProt P29475), anyone have it?
34.4

What value of inhibition on Nitric oxide synthase 1 (Homo sapiens, UniProt P29475) does "Nc1cc(Cl)c(Cl)cc1C1=NN(C(=O)c2ccccc2)CC1" have?
0.62

Report inhibition for "COc1ccc(N)c(C2=NN(C(=O)CCc3ccccc3)CC2)c1" tested on Nitric oxide synthase 1 (Homo sapiens, UniProt P29475).
25.9

Query for Nitric oxide synthase 1 (Homo sapiens, UniProt P29475): what inhibition does the record show for "Nc1cc(Cl)c(Cl)cc1C1=NN(C(=O)Cc2ccccc2)CC1" ?
21.6

State its inhibition on Nitric oxide synthase 1 (Homo sapiens, UniProt P29475): "COc1ccc(N)c(C2=NN(C(=O)C3CCCCC3)CC2)c1"
62.2

Record "COc1ccc(N)c(C2=NN(C(=O)c3ccccc3)CC2)c1" : what is its inhibition with Nitric oxide synthase 1 (Homo sapiens, UniProt P29475)?
58.9

I'm curious: which inhibition was measured for "Nc1ccccc1C1=NN(C(=O)CCc2ccccc2)CC1" tested on Nitric oxide synthase 1 (Homo sapiens, UniProt P29475)?
7.36

Give the reported inhibition for "COc1cc(N)c(C2=NN(C(=O)CCc3ccccc3)CC2)c(OC)c1OC" (system: Nitric oxide synthase 1 (Homo sapiens, UniProt P29475)).
82.5

Form field: inhibition recorded for "COc1cc(N)c(C2=NN(C(=O)C3CC3)CC2)cc1OC" with Nitric oxide synthase 1 (Homo sapiens, UniProt P29475) (enter value)
19.6

Given the entry "Nc1ccccc1C1=NN(C(=O)c2ccccc2)CC1" , what inhibition was observed with Nitric oxide synthase 1 (Homo sapiens, UniProt P29475)?
57

// fetch Nitric oxide synthase 1 (Homo sapiens, UniProt P29475) inhibition for "COc1cc(N)c(C2=NN(C(=O)C3CC3)CC2)c(OC)c1OC"
0.05

Provide the documented inhibition with Nitric oxide synthase 1 (Homo sapiens, UniProt P29475) as the system for "COc1ccc(N)c(C2=NN(C(C)=O)CC2)c1"
38

What inhibition appears in the records for this molecule with Nitric oxide synthase 1 (Homo sapiens, UniProt P29475)? "CCC(=O)N1CCC(c2cc(OC)ccc2N)=N1"
53.3

inhibition of "COc1ccc(N)c(C2=NN(C(=O)C3CCCC3)CC2)c1" on Nitric oxide synthase 1 (Homo sapiens, UniProt P29475)?
49.9
